These measurements were taken from paper PMC12155096.

Below are molecules with their AC50 as measured on human CYP1A2 (Homo sapiens, UniProt P05177).
Sequence (P05177 whole entry): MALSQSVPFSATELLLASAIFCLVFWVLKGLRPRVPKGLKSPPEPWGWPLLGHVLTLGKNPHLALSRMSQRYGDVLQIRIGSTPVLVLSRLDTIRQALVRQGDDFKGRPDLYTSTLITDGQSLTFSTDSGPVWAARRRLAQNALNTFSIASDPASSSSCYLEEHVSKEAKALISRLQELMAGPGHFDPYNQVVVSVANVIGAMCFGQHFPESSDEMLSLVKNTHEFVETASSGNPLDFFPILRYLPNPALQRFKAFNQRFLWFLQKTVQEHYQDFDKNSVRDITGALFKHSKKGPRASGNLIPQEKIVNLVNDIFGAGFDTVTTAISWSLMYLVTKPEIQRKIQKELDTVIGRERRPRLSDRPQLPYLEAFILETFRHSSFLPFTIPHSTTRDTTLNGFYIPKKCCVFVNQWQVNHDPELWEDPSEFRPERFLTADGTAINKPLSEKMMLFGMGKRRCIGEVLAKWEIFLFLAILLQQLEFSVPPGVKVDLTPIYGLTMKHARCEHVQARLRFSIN
measurement-kind: AC50 (µM)

CC(C)(c1ccc(Oc2ccc3c(c2)C(=O)OC3=O)cc1)c1ccc(Oc2ccc3c(c2)C(=O)OC3=O)cc1    63.2
NC(=O)Nc1nc2ccccc2[nH]1    47.2
O=C(O)c1cc2ccccc2nc1C(=O)O    47.9
O=S1(=O)CC(Cl)(Cl)C(Cl)(Cl)C1    31.2
Nc1ccc([N+](=O)[O-])c(C(F)(F)F)c1 [3-Trifluoromethyl-4-nitroanilide]    8.83
Brc1nc2ccccc2s1    11.1
CC(=O)c1cc2ccccc2s1 [2-Acetylbenzo[b]thiophene]    6.92
Cl.Nc1c2ccccc2nc2ccccc12.O    2.13
O=C(NCc1ncc(C(F)(F)F)cc1Cl)c1c(Cl)cccc1Cl [Fluopicolide]    33
CCC(=O)OCCOc1ccccc1 [Phenoxyethyl propionate]    55.5
COCC(=O)N(c1c(C)cccc1C)[C@H](C)C(=O)OC [Metalaxyl-M]    47.7
CC(C)CC(O)Cc1ccccc1 (centres unmarked)    37
c1ccc(CCCc2ccccn2)cc1    31.2
Cc1cccc2c1cc1ccc3cccc4ccc2c1c34    0.16
CCC(CC)Nc1ccc(C)c(C)c1    11.6
CC(=O)OC(C(=O)c1ccccc1)c1ccccc1 (centres unmarked) [Benzoin acetate]    46.5
NS(=O)(=O)c1ccccc1OC(F)(F)F [2-(Trifluoromethoxy)benzenesulfonamide]    51.9
O=C(O)C1(C(=O)Nc2ccc(Cl)cc2Cl)CC1 [Cyclanilide]    60.6
CCCC(C)c1ccccc1O (centres unmarked)    56.6
O=C(Oc1ccccc1)c1cccc(C(=O)Oc2ccccc2)c1 [Diphenyl isophthalate]    36.1

###

Observed log10 AC50 values for human CYP2D6 (Homo sapiens, UniProt P10635) are listed in what follows.
measurement-kind: log10 AC50 (log10 of the value in µM)

O=C(O)C1(C(=O)Nc2ccc(Cl)cc2Cl)CC1 [Cyclanilide]    1.82
CCCOc1ccc2c(c1)CC[C@@H]1[C@@H]2CC[C@]2(C)[C@@H](OC)CC[C@@H]12    1.33
Cl.Nc1c2c(nc3c1CCC3)CCCC2.O [Ipidacrine hydrochloride hydrate]    1.03
CC1=Nc2ccc3ccccc3c2C1(C)C [1,1,2-Trimethyl-1H-benzo[e]indole]    1.73
C=C(C)C(=O)OCCCCCCCCCCOC(=O)C(=C)C [1,10-Decanediol dimethacrylate]    1.57
CC(=O)OC(C(=O)c1ccccc1)c1ccccc1 (centres unmarked) [Benzoin acetate]    1.77
Cl.Nc1c2ccccc2nc2ccccc12.O    1.11
CCOC(CN1CCN(CC(C)C(=O)c2ccccc2)CC1)c1ccccc1.Cl.Cl (centres unmarked) [Eprazinone dihydrochloride]    -0.70
O=C(O)CC(C(=O)O)S(=O)(=O)O (centres unmarked)    1.78
COC(=O)c1ccccc1C(=O)c1ccc(OCCN2CCCCC2)cc1.Cl [Pitofenone hydrochloride]    1.17
CCN(CC)c1ccc2c(C)cc(=O)oc2c1    1.77
O=C(c1ccccc1)c1cccc(O)c1 [3-Hydroxybenzophenone]    1.73
O=C(Oc1ccccc1)c1cccc(C(=O)Oc2ccccc2)c1 [Diphenyl isophthalate]    1.56
CC(C)(c1ccc(Oc2ccc3c(c2)C(=O)OC3=O)cc1)c1ccc(Oc2ccc3c(c2)C(=O)OC3=O)cc1    1.58
C=C(C)C(=O)OCC(O)COc1ccc(C(C)(C)c2ccc(OCC(O)COC(=O)C(=C)C)cc2)cc1 (centres unmarked) [Bisphenol A glycidyl methacrylate]    1.57
CN1CCC(Nc2ncc3ncnc(Nc4ccc(F)c(Cl)c4)c3n2)CC1.Cl.Cl [Falnidamol dihydrochloride]    1.26
Cl.ClCCCN1CCN(c2cccc(Cl)c2)CC1    -0.10
NC(=O)Nc1nc2ccccc2[nH]1    1.53
CCN(CC)CCOc1ccc(Cc2ccccc2)cc1.Cl [Tesmilifene hydrochloride]    1.08
CC(C)c1ccc2sc3ccccc3c(=O)c2c1    1.44
CO/C=C(/C(=O)OC)c1ccccc1COc1cccc(C(F)(F)F)n1    1.58
CN(C)CCc1c[nH]c2ccccc12.O=C(O)/C=C/C(=O)O [N,N-Dimethyltryptamine fumarate]    1.54
O=C(CCC1CCN(Cc2ccccc2)CC1)c1ccc2c(c1)NCCCC2.O=C(O)/C=C/C(=O)O [Zanapezil fumerate]    0.85
CCCCCCCCCCCCCC[N+](C)(C)Cc1ccccc1.O.O.[Cl-]    0.30
Cl.O.c1cnc2c(c1)ccc1cccnc12    1.59
c1ccc(SCCSc2ccccc2)cc1    1.75
